Test: Oral bioavailability in Wistar rat at 10 mg/kg
Format: ADME, organism-based
Settings: in vivo
Readout: bioavailability (%)
Form entry: value (%) — number only.

Per the records, this compound ( COc1ncc(C#N)cc1-c1ccc([C@@H](C)NS(=O)(=O)c2cn(C)nc2C(F)(F)F)cc1 ) has bioavailability equal to 42

----------
Assay: Plasma clearance in Wistar rat at 2 mg/kg, iv; 10 mg/kg, po
Type: ADME, organism-based
Readout: clearance (mL/min/kg)
Your answer is read as mL/min/kg, so omit the unit and give the number.

Per the record, COc1ncc(C#N)cc1-c1ccc([C@@H](C)NS(=O)(=O)c2cn(C)nc2C(F)(F)F)cc1 has clearance of 9.8

Every entry's value here was drawn from ChEMBL document CHEMBL1641565.
